Assayed System: human LOXL2 (Homo sapiens (Human))
Assay Method Text: Human LOXL2 amine oxidase activity assay (Amplex Red)
Assay type: biochemical
Test Parameters: concentrated conditioned media from CHO cells stably expressing human LOXL2; 2 h at 37° C. with compound; DAP substrate
Structures can show the parent of a compound that is named as a salt.
Reported Metric: IC50

Observe how each entry below is paired with its result.
>>> df
                                   molecule  reported_metric  reported_measurement
0  Cl.[2H]C([2H])(N)c1cc(Oc2cccc(C(=O)Nc3ccccc3)c2)nc(C(F)(F)F)c1             IC50              < 0.3 µM
1  COC(=O)c1cccc(C(=O)Nc2cc(CN)cc(C(F)(F)F)n2)c1 [Compound 1-238, trifluoroacetate]             IC50              < 0.3 µM
2  NCc1cc(Oc2cccc(C(=O)O)c2)nc(C(F)(F)F)c1 [Compound 1-224, hydrochloride]             IC50           0.3 to 1 µM

Request: # return recorded IC50 for entry NCc1cc(Oc2cccc(-c3cn[nH]c3)c2)nc(C(F)(F)F)c1 [Compound 1-6, trifluoroacetate]
Result: < 0.3 µM

Request: Provide IC50 value for the following molecule: CN(CCO)C(=O)c1cccc(Oc2cc(CN)cc(C(F)(F)F)n2)c1 [Compound 1-202, hydrochloride]
Result: < 0.3 µM

Request: Identify the reported IC50 for the following entry. NCc1cc(Oc2cccc3[nH]ccc23)nc(C(F)(F)F)c1
Result: < 0.3 µM

Request: Return reported IC50. Input molecule: CC(=O)N1CCC2(CC(Oc3cc(CN)cc(C(F)(F)F)n3)C2)C1 (centres unmarked) [Compound 1-244, hydrochloride]
Result: 0.3 to 1 µM

Request: Look up and report measured IC50 for this entry: NCc1cc(Oc2cncc(C(=O)N3CC[C@@H](N)C3)c2)nc(C(F)(F)F)c1 [Compound 1-54, dihydrochloride]
Result: < 0.3 µM

====

Counter-ions that a name gives are not always drawn.
Reported values: IC50 for human LOXL2 (Homo sapiens (Human), UniProt Q9Y4K0), one per item.

>>> df
                                   compound  reported_metric  reported_measurement
0  NCc1cc(OCC2CCN(C(=O)Nc3ccccc3)CC2)nc(C(F)(F)F)c1 [Compound 1-42, trifluoroacetate]             IC50              < 0.3 µM
1  NCc1cc(Oc2cc(C(=O)N3C[C@@H](O)[C@H](F)C3)ccc2O)nc(C(F)(F)F)c1 (racemic) [Compound 1-229, hydrochloride]             IC50           0.3 to 1 µM
2  NCc1cc(-n2ccccc2=O)nc(C(F)(F)F)c1 [Compound 1-161, hydrochloride]             IC50                > 1 µM

As a next step, examine the compound that follows.
Request: Check human LOXL2 (Homo sapiens (Human), UniProt Q9Y4K0) data and give IC50 for C#CCCCCNC(=O)c1cccc(Oc2cc(CN)cc(C(F)(F)F)n2)c1 [Compound 1-216, trifluoroacetate] .
Result: < 0.3 µM

====

Assayed System: human LOXL2 (Homo sapiens (Human), UniProt Q9Y4K0)
Sequence (Q9Y4K0 26-774): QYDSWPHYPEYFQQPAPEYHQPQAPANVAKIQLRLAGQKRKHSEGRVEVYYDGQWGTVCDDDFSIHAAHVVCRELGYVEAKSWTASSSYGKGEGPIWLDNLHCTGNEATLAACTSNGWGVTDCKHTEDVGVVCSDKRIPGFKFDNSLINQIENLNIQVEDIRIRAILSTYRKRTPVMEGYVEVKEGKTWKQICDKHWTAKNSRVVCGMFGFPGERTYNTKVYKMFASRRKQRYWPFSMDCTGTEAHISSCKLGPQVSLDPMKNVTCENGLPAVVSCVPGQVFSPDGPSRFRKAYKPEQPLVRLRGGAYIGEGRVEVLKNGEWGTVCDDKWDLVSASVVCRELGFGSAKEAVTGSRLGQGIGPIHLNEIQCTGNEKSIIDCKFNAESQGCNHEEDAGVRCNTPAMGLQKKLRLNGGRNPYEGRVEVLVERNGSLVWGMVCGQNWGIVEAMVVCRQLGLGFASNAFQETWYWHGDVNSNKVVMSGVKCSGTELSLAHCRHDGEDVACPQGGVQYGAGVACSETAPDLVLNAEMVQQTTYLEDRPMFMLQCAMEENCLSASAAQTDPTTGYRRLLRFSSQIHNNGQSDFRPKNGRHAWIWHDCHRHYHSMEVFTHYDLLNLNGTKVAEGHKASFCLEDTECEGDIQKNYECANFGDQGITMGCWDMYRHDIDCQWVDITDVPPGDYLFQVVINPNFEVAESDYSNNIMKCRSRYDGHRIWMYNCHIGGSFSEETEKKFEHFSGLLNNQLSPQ
Counter-ions that a name gives are not always drawn.
Reported Metric: IC50

Compound	IC50
NCc1cc(Oc2cccc(C(=O)N[C@H]3CCC[C@H]3O)c2)nc(C(F)(F)F)c1 [Compound 1-210, hydrochloride]	< 300 nM
NCc1cc(Oc2cccc(C(=O)N3CC[C@H](F)C3)c2)nc(C(F)(F)F)c1 [Compound 1-213, hydrochloride]	< 300 nM

Now consider the entry below.
Request: Report IC50 from human LOXL2 (Homo sapiens (Human), UniProt Q9Y4K0) testing of Cl.NCc1cc(Oc2cccc(C(=O)Nc3ccccc3)c2)nc(C(F)(F)F)c1 [Compound 1-7, hydrochloride]
Result: < 300 nM

====

The following compounds are shown together with reported IC50 values.
Assayed System: human LOXL2 (Homo sapiens (Human), UniProt Q9Y4K0)
Counter-ions that a name gives are not always drawn.

Answered examples (6):
>>> df
                                   compound  reported_measurement
0  CONC(=O)c1cccc(Oc2cc(CN)cc(C(F)(F)F)n2)c1 [Compound 1-219, hydrochloride]              < 0.3 µM
1  CS(=O)(=O)CCNC(=O)c1cccc(Oc2cc(CN)cc(C(F)(F)F)n2)c1.Cl [Compound 1-30, hydrochloride]              < 0.3 µM
2  NCc1cc(NCc2cccc(C(=O)Nc3ccccc3)c2)nc(C(F)(F)F)c1 [Compound 1-105, hydrochloride]              < 0.3 µM
3  NCc1cc(Oc2cccc3c2CCC(=O)N3CC(=O)O)nc(C(F)(F)F)c1 [Compound 1-236, hydrochloride]                > 1 µM
4  N#CCCNC(=O)c1cccc(Oc2cc(CN)cc(C(F)(F)F)n2)c1 [Compound 1-198, hydrochloride]              < 0.3 µM
5  NCc1cc(Oc2cccc(C(=O)Nc3ncco3)c2)nc(C(F)(F)F)c1 [Compound 1-227, hydrochloride]              < 0.3 µM

Below: the item to evaluate.
Request: Look up and report measured IC50 for this entry: C#C[C@H](CC(=O)O)NC(=O)c1cccc(Oc2cc(CN)cc(C(F)(F)F)n2)c1
Result: 0.3 to 1 µM

====

Assayed System: human LOXL2 (Homo sapiens (Human))
Where a name gives a salt, the structure may show the parent alone.
Reported Metric: IC50

                                   compound  reported_metric  reported_measurement
0  NCc1cc(Oc2cccc(C(=O)N3CCc4ccccc4C3)c2)nc(C(F)(F)F)c1 [Compound 1-11, hydrochloride]             IC50              < 0.3 µM
1  CN(C(=O)Cn1ccc2c(Oc3cc(CN)cc(C(F)(F)F)n3)cccc21)c1ccccc1 [Compound 1-38, hydrochloride]             IC50              < 0.3 µM

Request: Quick one: give measured IC50 for NCc1cc(Oc2cccc(C(=O)NCCS(N)(=O)=O)c2)nc(C(F)(F)F)c1 [Compound 1-34, hydrochloride]
Result: < 0.3 µM

Request: // fetch IC50 given entry NCc1cc(NC(=O)c2cccc(C(=O)O)c2)nc(C(F)(F)F)c1 [Compound 1-239, trifluoroacetate]
Result: < 0.3 µM

Request: Provide one value: measured IC50 of NCc1cc(-c2cccnc2)nc(C(F)(F)F)c1 [Compound 1-1, trifluoroacetate]
Result: < 0.3 µM

Request: Name the recorded IC50 of the compound listed here: Cc1cc(=O)n(Cc2cc(CN)cc(C(F)(F)F)n2)c(=O)n1CCO [Compound 1-135, hydrochloride]
Result: > 1 µM

Request: Using the record for COCC1CN(C(=O)c2cccc(Oc3cc(CN)cc(C(F)(F)F)n3)c2)C1 [Compound 1-206, hydrochloride] , state its measured IC50.
Result: < 0.3 µM

Request: Please indicate IC50 recorded for CC1(O)CCN(C(=O)c2cccc(Oc3cc(CN)cc(C(F)(F)F)n3)c2)CC1 [Compound 1-205, hydrochloride]
Result: < 0.3 µM

====

Assayed System: human LOXL2 (Homo sapiens (Human))
pIC50: −log10 of the molar value. Where a name gives a salt, the structure may show the parent alone.
Measured pIC50, listed per entry for reference.

Worked set:
Compound	pIC50
NCc1cc(Oc2cncc(C(=O)N3C[C@@H](O)[C@H](F)C3)c2)nc(C(F)(F)F)c1 (racemic) [Compound 1-55, hydrochloride]	> 6.52
C#CCNC(=O)c1cccc(Oc2cc(CN)cc(C(F)(F)F)n2)c1 [Compound 1-248, hydrochloride]	> 6.52
NCc1cc(O[C@H]2CCCN(C(=O)c3cc(=O)c4ccccc4o3)C2)nc(C(F)(F)F)c1 [Compound 1-48, trifluoroacetate]	> 6.52
N=C(N)NC(=O)Cn1ccc2c(Oc3cc(CN)cc(C(F)(F)F)n3)cccc21 [Compound 1-234, dihydrochloride]	< 6.00
NCc1cc(NCc2cccc(C(=O)N3CC[C@H](O)C3)c2)nc(C(F)(F)F)c1 [Compound 1-237, hydrochloride]	6.00 to 6.52

Request: Look up and report pIC50, with human LOXL2 (Homo sapiens (Human)) as system, for NCc1cc(O[C@H]2CCCN(C(=O)c3cncnc3)C2)nc(C(F)(F)F)c1 [Compound 1-50, trifluoroacetate]
Result: > 6.52

Request: Using human LOXL2 (Homo sapiens (Human)) as the test system, report measured pIC50 of NCc1cc(Oc2cccc(C(=O)N3CC[C@@H](O)C3)c2)nc(C(F)(F)F)c1 [Compound 1-18, hydrochloride] .
Result: > 6.52

Request: Report its pIC50 with human LOXL2 (Homo sapiens (Human)) as the test system: NCc1cc(O[C@H]2CCCN(C(=O)Cc3ccccc3)C2)nc(C(F)(F)F)c1 [Compound 1-46, trifluoroacetate]
Result: > 6.52

Request: Tell me its pIC50 on human LOXL2 (Homo sapiens (Human)): NCc1cc(Oc2cccc(C(=O)N3CC[C@@H](F)C3)c2)nc(C(F)(F)F)c1 [Compound 1-212, hydrochloride]
Result: > 6.52

Request: Report pIC50 on human LOXL2 (Homo sapiens (Human)) for this entry: NCc1cc(Oc2cccc(C(=O)N3CC[C@@H](CO)C3)c2)nc(C(F)(F)F)c1 [Compound 1-26, hydrochloride]
Result: > 6.52

Request: Fill in pIC50 for NCc1cc(Oc2cccc(C(=O)NC3(CO)CC3)c2)nc(C(F)(F)F)c1 [Compound 1-31, hydrochloride] tested with human LOXL2 (Homo sapiens (Human)).
Result: > 6.52

Cited source for all entries: patent US11072585B2
